- STUDY SYSTEM: Cytochrome P450 2C9 (Homo sapiens) (UniProt P11712)
- Sequence (P11712 whole entry, looked up): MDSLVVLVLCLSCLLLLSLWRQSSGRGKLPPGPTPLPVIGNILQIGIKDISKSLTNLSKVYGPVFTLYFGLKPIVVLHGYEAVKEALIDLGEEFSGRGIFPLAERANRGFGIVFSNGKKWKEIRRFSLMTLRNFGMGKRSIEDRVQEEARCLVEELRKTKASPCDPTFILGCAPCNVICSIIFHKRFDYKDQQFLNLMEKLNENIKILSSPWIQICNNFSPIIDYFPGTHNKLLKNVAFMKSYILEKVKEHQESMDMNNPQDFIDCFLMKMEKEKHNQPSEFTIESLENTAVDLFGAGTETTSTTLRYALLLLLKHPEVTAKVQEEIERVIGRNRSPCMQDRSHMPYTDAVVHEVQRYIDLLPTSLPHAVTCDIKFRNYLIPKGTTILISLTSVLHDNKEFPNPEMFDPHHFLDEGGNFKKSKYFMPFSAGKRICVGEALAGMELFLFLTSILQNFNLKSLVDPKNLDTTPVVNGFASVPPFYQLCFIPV
- TEST NAME: Cytochrome P450 family 2 subfamily C member 9 (CYP2C9) small molecule antagonists: luciferase biochemical (cell-free) qHTS assay (AID 1645842); note: nearly all actives have a fitted effect of over 55% in size
- ASSAY CONTEXT: P450-Glo CYP2C9 enzyme assay, luciferin luminescence; series mostly up to 57.4 µM
Records with an inconclusive call do not appear. Active and inactive are the calls of the source. Calls come from the whole dose curve; as a rule, active = well fitted inhibition curve with a large enough effect in the repeat runs; inconclusive = weak or mixed curves; inactive = no such curve, though single readings can be large or run the other way.
Classes used: y for active, n for inactive

- MOLECULE: "Cc1cc2nc(NCCCO)n(CC(=O)c3cc(C(C)(C)C)c(O)c(C(C)(C)C)c3)c2cc1C"
  STUDY SYSTEM: "Cytochrome P450 2C9 (Homo sapiens) (UniProt P11712)"
  ANSWER LABEL: "y"
- MOLECULE: "CC1CN(CC(=O)Nc2ccc3c(c2)Cc2cccc(-c4cc(=O)cc(N5CCOCC5)o4)c2S3)CC(C)O1 (centres undefined)"
  STUDY SYSTEM: "Cytochrome P450 2C9 (Homo sapiens) (UniProt P11712)"
  ANSWER LABEL: "y"
- MOLECULE: "CC(C)(C)c1ccc(CNC(=S)NCc2ccc(NS(C)(=O)=O)c(F)c2)cc1"
  STUDY SYSTEM: "Cytochrome P450 2C9 (Homo sapiens) (UniProt P11712)"
  ANSWER LABEL: "y"
- MOLECULE: "Cc1cc(C)c(NC(=O)N(Cc2ccc3c(c2)Cc2ccccc2-3)C2CCCCCC2)c(C)c1"
  STUDY SYSTEM: "Cytochrome P450 2C9 (Homo sapiens) (UniProt P11712)"
  ANSWER LABEL: "y"
- MOLECULE: "CCS(=O)(=O)N(Cc1cccnc1)c1cccc(-c2ccc(C#N)cc2)c1"
  STUDY SYSTEM: "Cytochrome P450 2C9 (Homo sapiens) (UniProt P11712)"
  ANSWER LABEL: "y"
- MOLECULE: "CN(Cc1ccc(C(=O)O)cc1)c1ccc(OCc2c(-c3c(Cl)cccc3Cl)noc2C2CC2)nc1C(F)(F)F"
  STUDY SYSTEM: "Cytochrome P450 2C9 (Homo sapiens) (UniProt P11712)"
  ANSWER LABEL: "y"
- MOLECULE: "O=C1CC[C@H](C(=O)O)N1"
  STUDY SYSTEM: "Cytochrome P450 2C9 (Homo sapiens) (UniProt P11712)"
  ANSWER LABEL: "n"
- MOLECULE: "Cc1[nH]c(/C=C2\\C(=O)Nc3ccc(F)cc32)c(C)c1C(=O)NC[C@H](O)CN1CCOCC1"
  STUDY SYSTEM: "Cytochrome P450 2C9 (Homo sapiens) (UniProt P11712)"
  ANSWER LABEL: "n"
- MOLECULE: "COc1ccc2c(c1)C[C@H](C(=O)Nc1ccc(-c3cn[nH]c3)cc1OCCN(C)C)CO2"
  STUDY SYSTEM: "Cytochrome P450 2C9 (Homo sapiens) (UniProt P11712)"
  ANSWER LABEL: "y"
- MOLECULE: "CCC[C@@H](NC(=O)N1C(=O)C(CC)(CC)[C@@H]1Oc1ccc(C(=O)N2CCN(C)CC2)cc1)c1ccc2c(c1)OCO2"
  STUDY SYSTEM: "Cytochrome P450 2C9 (Homo sapiens) (UniProt P11712)"
  ANSWER LABEL: "y"
- MOLECULE: "CCCc1c(C(C)C)nc(C(C)C)c([C@@H](C)O)c1-c1ccc(F)cc1O"
  STUDY SYSTEM: "Cytochrome P450 2C9 (Homo sapiens) (UniProt P11712)"
  ANSWER LABEL: "y"
- MOLECULE: "CCN(CC)Cc1cccc(/C=C/c2nc3ccc(F)cc3c(=O)n2-c2ccccc2Cl)n1"
  STUDY SYSTEM: "Cytochrome P450 2C9 (Homo sapiens) (UniProt P11712)"
  ANSWER LABEL: "y"
- MOLECULE: "CC(=O)N1c2ccc(-c3ccc(C(=O)O)cc3)cc2C(Nc2ccc(Cl)cc2)CC1C (centres undefined)"
  STUDY SYSTEM: "Cytochrome P450 2C9 (Homo sapiens) (UniProt P11712)"
  ANSWER LABEL: "y"
- MOLECULE: "Cc1ccc(Nc2nnc(-c3ccc(C)c(S(=O)(=O)NCc4nc5ccccc5[nH]4)c3)c3ccccc23)cc1"
  STUDY SYSTEM: "Cytochrome P450 2C9 (Homo sapiens) (UniProt P11712)"
  ANSWER LABEL: "y"
- MOLECULE: "C[C@@H](c1nc(-c2ccc(C#N)cc2)cs1)[C@](O)(Cn1cncn1)c1cc(F)ccc1F"
  STUDY SYSTEM: "Cytochrome P450 2C9 (Homo sapiens) (UniProt P11712)"
  ANSWER LABEL: "y"
- MOLECULE: "C[C@@H](O[C@H]1OCCN(Cc2n[nH]nc2CN(C)C)[C@H]1c1ccc(F)cc1)c1cc(C(F)(F)F)cc(C(F)(F)F)c1"
  STUDY SYSTEM: "Cytochrome P450 2C9 (Homo sapiens) (UniProt P11712)"
  ANSWER LABEL: "y"
- MOLECULE: "CCCCc1nc(C)c(CC(=S)N(C)C)c(=O)n1Cc1ccc(-c2ccccc2-c2nn[nH]n2)cc1"
  STUDY SYSTEM: "Cytochrome P450 2C9 (Homo sapiens) (UniProt P11712)"
  ANSWER LABEL: "y"
- MOLECULE: "C=CC(=O)Nc1cccc(Nc2nc(Nc3ccc(Oc4ccnc(C(=O)NC)c4)cc3)ncc2F)c1"
  STUDY SYSTEM: "Cytochrome P450 2C9 (Homo sapiens) (UniProt P11712)"
  ANSWER LABEL: "y"
- MOLECULE: "CCOC(=O)c1cccc(CNc2ccc(N(C)C(=O)Nc3ccccc3)cc2)c1"
  STUDY SYSTEM: "Cytochrome P450 2C9 (Homo sapiens) (UniProt P11712)"
  ANSWER LABEL: "y"
